procedure text: yeast display, Sf9 membrane polyspecificity reagent, FACS + sequencing; frameworks hold sequencing errors
metric name: polyreactivity (PSR sort gate)

// known answers, use as guide
1. QVQLVESGGGLVQAGGSLRLSCAASGRTFRNYAMGWYRQAPGKERELVAAIRSGVRTYYADSVKGRFTISRDNAKNTVYLQMNSLKPEDTAVYYCAVATGLLYKSHGYWGQGTQVTVSS	low polyreactivity
2. QVQLVESGGGLVQAGGTLRLTCAASGFTLTRNAMGWYRQAPGKERELVAAISRSGGSTYYADSVKGRFTISRDNAKNTVYLQMNSLKPEDTAVYYCAADDKYFYPGNGYWGLGTQVTVSS	high polyreactivity
3. QVQLVESGGGLVQAGGSLRLSCAASGFILSPNTMGWYRLAPGKERELVAAISSDVSTYADSVKGRFTISRDNAKNTVYLQMYSLKPEDTAVYYCNADDFGYASYESWGQGTQVTVSS	low polyreactivity
4. QVQLVESGGGLVQAGGSLRLSCAASGSIFIVYAMGWYRQAPGKERELVATISWSGGSTSYADSVKGRFTISRDNAKNTVYLQMNSLKPEDTAVYYCNTLVRITEYDSWGQGTQVTVSS	low polyreactivity
5. QVQLVESGGGLVQAGGSLRLSCAASGSIFYFNAMGWYRQAPGKERELVARISGSSGRTYYADSVKGRFTISRDNAKNTVYLQMNSLKPEDTAVYYCAARYYTSATMDYWGQGTQVTVSS	high polyreactivity

Turning now to a further sequence:
Exam item: Please report the recorded polyreactivity (PSR sort gate) for `QVQLVESGGGLVQAGGSLRLSCAASGSIILHYAMGRYRHAPRKERELVAVIRGGGSTNYADSVKGRFTISRDNAKNSVYLQMNSLKPEDSAVYYCAADYEAYRYDFWGQGTQVTVSS` .
Marked response: high polyreactivity

====

procedure text: yeast display, Sf9 membrane polyspecificity reagent, FACS + sequencing; frameworks hold sequencing errors
metric name: polyreactivity (PSR sort gate)

1) QVQLVESGGGLVQAGGSLRLSCAASGSTFLYYAMGWYRQAPGKERELVAVISWSGVSTYYADSVKGRFTISRYNAKNTVYLQMNSLKPEDTAVYYCNTGNHYIRTYGYWGLGTQVTVSS	low polyreactivity
2) QVQLVESGGGLVQAGGSLRLSCAASGNTFPPNAMGWYRQAPGKERELVAAISWSGDSTYYADSVKGRFTISRDYAKNTVYLQMYSLKPEDTAVYYCAAAIFGEYEYWGQGTQVTVSS	low polyreactivity
3) QVQLVESGGGLVQAGGSLRLSCAASGSTFLYYAMGWYRQAPGKERELVAVISWSCVSTYYADSVKGRFTISRDNAKYTVYLQMNSLKPEDTAVSYCAADWDWRFHRMNYWGQGTQVTVSS	low polyreactivity
4) QVQLVESGGGLVQAGGSLRVSCAASGSTFTGYAMGWYRQAPGKERELVAAISRGGSTNYADSVKGRFTISRDNAKNTVYLQMNSLKPEDTAVYYCAAETYYFGYGYWGQGTQVTVSS	high polyreactivity
5) QVQLVESGGGLVQAGGSLRLSCAASGRIFIYNAMGWSRQAPGKEREFVAAISSSGGSTYYADSVKGRFTISRDNAKNTVYLQMNSLKPEDTAVYYCAAGGWPYSGGWFFQPNYDYWGQGTQVTVSS	low polyreactivity

Exam item: So what does the record say about polyreactivity (PSR sort gate) for `QVQLVESGGGLVQAGGSLRLSCAASGFTFDDYTMGWYRQAPGKEREFVAAISSSGGSTYYADSVKGRFTISRDNAKNTVYLQMNSLKPEDTAVYYCAADARYYDYYEYDYWGQGTQVTVSS` ?
Marked response: high polyreactivity

Exam item: Please report the recorded polyreactivity (PSR sort gate) for `QVQLVESGGGLVQAGGSLRLSCAASGITFTSNTLGWYRQAPGKERELVAAISKSGGSTYYADSVKGRFTISRDNAKNTVYLQMNSLKPEDTAVYYCAKDSDYYRRDVTVDYWGQGTQVTVSS` .
Marked response: low polyreactivity

Ref: the nanobody polyreactivity screen of Harvey et al. (2022)
